Test target: Estrogen receptor (Homo sapiens)
Method: qHTS assay for small molecule agonists of estrogen receptor alpha signaling (AID 588514); note: nearly all actives have a fitted effect of over 70% in size
Measurement conditions: ER-alpha-UAS-bla HEK293, beta-lactamase ratio, 18 h; series mostly up to 76.8 µM
Inconclusive results are not listed. Active and inactive are the calls of the source. Calls come from the whole dose curve.
Classes used: active, inactive

{"Compound": "c1ccc(OP(Oc2ccccc2)Oc2ccccc2)cc1", "Class": "inactive"}
{"Compound": "BrCCBr", "Class": "inactive"}
{"Compound": "ClC(Cl)(Cl)c1ccccc1", "Class": "inactive"}
{"Compound": "CNC(=O)O/N=C/C(C)(C)SC", "Class": "inactive"}
{"Compound": "S=C=Nc1cccc2ccccc12", "Class": "inactive"}
{"Compound": "C=C(Cl)Cl", "Class": "inactive"}
{"Compound": "CC(C)(C)C(=O)C(Oc1ccc(Cl)cc1)n1cncn1 (configuration not stated)", "Class": "active"}
{"Compound": "CCOc1ccc(N)cc1", "Class": "inactive"}
{"Compound": "C=CC(C)=O", "Class": "inactive"}
{"Compound": "c1nc[nH]n1", "Class": "inactive"}
{"Compound": "CCCC(=O)Cl", "Class": "inactive"}
{"Compound": "Clc1ccc2ccccc2c1", "Class": "inactive"}
{"Compound": "O=NN(CCO)CCO", "Class": "inactive"}
{"Compound": "Oc1ccc(Cl)cc1Cl", "Class": "inactive"}
{"Compound": "Nc1ccccc1Cl", "Class": "inactive"}
{"Compound": "OCC(Br)CBr (configuration not stated)", "Class": "inactive"}
{"Compound": "CCOP(=S)(OCC)SCSC(C)(C)C", "Class": "inactive"}
{"Compound": "CCS(=O)CCSP(=O)(OC)OC (configuration not stated)", "Class": "inactive"}
{"Compound": "CC(O)CCl (configuration not stated)", "Class": "inactive"}
{"Compound": "C=CC(=O)OCC", "Class": "inactive"}
{"Compound": "c1ccc(-c2ccccc2)cc1", "Class": "inactive"}
{"Compound": "Clc1cccc(C(Cl)(Cl)Cl)n1", "Class": "inactive"}
{"Compound": "CNC(=O)CSP(=S)(OC)OC", "Class": "inactive"}
{"Compound": "CCCCCCCC(=O)Cl", "Class": "inactive"}
{"Compound": "CCCCOC(=O)c1ccccc1C(=O)OCCCC", "Class": "inactive"}
{"Compound": "C=CC(=C)C", "Class": "inactive"}
{"Compound": "CNC(=O)Oc1cccc2c1OC(C)(C)O2", "Class": "inactive"}
{"Compound": "c1ccc2c(c1)CCCC2", "Class": "inactive"}
{"Compound": "N#Cc1c(Cl)cccc1Cl", "Class": "inactive"}
{"Compound": "Cc1ccc(O)c(C)c1", "Class": "inactive"}
{"Compound": "O=NN(c1ccccc1)c1ccccc1", "Class": "inactive"}
{"Compound": "C[N+](C)(C)Cc1ccccc1", "Class": "inactive"}

* * *

Method: Panc-1005 Cancer Cell Toxicity qHTS against the NCATS CANVASS Library (AID 1347349); note: nearly all actives have a fitted effect of over 60% in size
Measurement conditions: Panc-1005 viability, CellTiter-Glo luminescence, 72 h; series mostly up to 38.3 µM
Records with an inconclusive call do not appear. Active and inactive are the calls of the source. Calls follow the shape of the dose curve; as a rule, active = well fitted cell-killing curve with a large enough effect; inconclusive = small, poorly fitted or top-dose-only effect; inactive = flat fitted curve, though single readings scatter.

{"Chemical smiles": "CCC(=O)N[C@@H](C[C@H](C)C(Cl)(Cl)Cl)C(=O)N1C(=O)C=C(OC)[C@@H]1C[C@H](C)C(Cl)Cl", "outcome": "inactive"}
{"Chemical smiles": "CO[C@@H](/C=C/CC/C=C/C(=O)O)[C@@H](O)[C@H](C)/C=C(\\C)[C@H](O)[C@H](C)C(=O)CCCC1CC(=O)NC(=O)C1", "outcome": "inactive"}
{"Chemical smiles": "CC[C@]12C=CCN3CC[C@]4(C(=C(C(=O)OC)C1)Nc1ccccc14)[C@@H]32", "outcome": "inactive"}

Origin of measurements: PubChem BioAssay (NCATS)
